TARGET_UNDER_TEST: human EP2 receptors (Homo sapiens, UniProt P43116)
Construct: expressed in transfected cells
Sequence (P43116 whole entry): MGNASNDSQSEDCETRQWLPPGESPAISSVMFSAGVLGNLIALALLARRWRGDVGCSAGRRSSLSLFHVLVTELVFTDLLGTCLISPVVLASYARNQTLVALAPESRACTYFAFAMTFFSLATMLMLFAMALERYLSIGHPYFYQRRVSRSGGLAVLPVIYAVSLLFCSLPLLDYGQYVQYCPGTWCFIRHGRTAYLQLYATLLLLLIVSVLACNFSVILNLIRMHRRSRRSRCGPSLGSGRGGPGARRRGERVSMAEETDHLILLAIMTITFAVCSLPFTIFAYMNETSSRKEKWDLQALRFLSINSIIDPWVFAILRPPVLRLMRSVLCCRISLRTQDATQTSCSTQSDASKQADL
PROCEDURE_SUMMARY: cell-based cAMP TR-FRET assay, rightward shift of PGE2 concentration response curve (Schild KB), EP2
CONDITION_DESCRIPTION: Table 6; read-out: EP2 KB
REPORTED_METRIC: log10 Kb (log10 of the value in nM)
The figures below represent log10 of Kb, where Kb is stated in nM.

# get_value(readout='log10 Kb', item= Cc1cc2ccccc2n1C1CCCN(C(=O)c2ccc(N3CCOCC3)cc2)C1 (stereo not drawn) )
3.25

# get_value(readout='log10 Kb', item= Cc1cc2ccccc2n1CCNC(=O)c1ccc(-n2cc(CO)nn2)cc1 )
1.45

# get_value(readout='log10 Kb', item= COc1cc(C(=O)NCCn2c(C)cc3ccccc32)ccc1OCCN(C)C )
3.00

# get_value(readout='log10 Kb', item= Cc1cc2ccccc2n1CCNC(=O)c1cc(-c2ccccc2)no1 )
1.47

# get_value(readout='log10 Kb', item= Cc1cc2ccccc2n1CCNC(=O)c1cc(CC(C)C)no1 )
2.24

# get_value(readout='log10 Kb', item= Cc1cc2ccccc2n1CCNC(=O)c1cnc(N2CCC(CO)CC2)nc1 )
2.20

# get_value(readout='log10 Kb', item= Cc1cc2ccccc2n1CCNC(=O)c1ccc(-c2cn(COCc3ccccc3)nn2)cc1 )
2.21

# get_value(readout='log10 Kb', item= Cc1cc2ccccc2n1CCNC(=O)c1ccc(-c2cn(Cc3ccccc3)nn2)cc1 )
2.48

# get_value(readout='log10 Kb', item= CCOC(=O)C1CCN(c2ccc(C(=O)NCCn3c(C(F)(F)F)cc4ccccc43)cc2)CC1 )
3.44

----------
TARGET_UNDER_TEST: human EP2 receptors (Homo sapiens)
Construct: expressed in transfected cells
PROCEDURE_SUMMARY: cell-based cAMP TR-FRET assay, rightward shift of PGE2 concentration response curve (Schild KB), EP2
CONDITION_DESCRIPTION: Table 1; Schild KB from single antagonist concentration 1 μM; average of 2-3 measurements in duplicate; read-out: EP2 KB
Method: KB value indicates the antagonist concentration required for a twofold rightward shift in the PGE2 dose-response curve. Thus, a lower KB value indicates a higher inhibitory potency. […] Intracellular cAMP was measured with a cell-based homogeneous time-resolved fluorescence resonance energy transfer (TR-FRET) method (Cisbio Bioassays). […] The FRET signal was expressed as: F665/F590×10^4.
// boundary case: Kb equal to 40 nM maps to not satisfied; strictly smaller maps to satisfied

Dear reviewer, please state whether Cc1cc2ccccc2n1CCNC(=O)c1ccc(N(C)C)cc1 has Kb strictly beneath 40 nM.
satisfied

Dear reviewer, please state whether Cc1cc2ccccc2n1CCNC(=O)c1ccc(N2CCCCC2)cc1 has Kb strictly beneath 40 nM.
satisfied

Dear reviewer, please state whether Cc1cc2ccccc2n1CCNC(=O)c1ccc(NC(=O)c2ccccc2F)cc1 has Kb strictly beneath 40 nM.
not satisfied

Dear reviewer, please state whether Cc1cc2ccccc2n1CCNC(=O)c1ccc(-n2cnnn2)cc1 has Kb strictly beneath 40 nM.
not satisfied

Dear reviewer, please state whether Cc1cc2ccccc2n1CCNC(=O)c1ccc(NC(=N)N)cc1 has Kb strictly beneath 40 nM.
not satisfied

Dear reviewer, please state whether CCN(CC)c1ccc(C(=O)NCCn2c(C)cc3ccccc32)cc1F has Kb strictly beneath 40 nM.
satisfied

Dear reviewer, please state whether Cc1[nH]c2ccccc2c1CCNC(=O)c1ccc(N2CCN(C)CC2)cc1 has Kb strictly beneath 40 nM.
not satisfied

Dear reviewer, please state whether Cc1cc2ccccc2n1CCNC(=O)c1ccc(N2CCNCC2)cc1 has Kb strictly beneath 40 nM.
not satisfied

Reference source for all entries: patent US11077120B2
